protocol description: Steady-state plasma pharmacokinetics of Trospium in subjects 65 years or older with overactive bladder symptoms (Example 1)
Type: in vivo, human
test conditions: both sexes, human, plasma; Day 10; 60 mg Trospium daily for 10 days; read-out: Peak plasma concentration (Cmax)
Experimental: A single-center, single-blind, randomized, placebo-controlled, parallel group study was conducted to evaluate whether Trospium permeates across the human blood-brain barrier and whether Trospium could cause cognitive impairment.
measured property: Cmax (ng/mL)
Return type: number; implicit unit ng/mL.

**Q:** Which Cmax value is on record for O=C(OC1CC2CCC(C1)[N+]21CCCC1)C(O)(c1ccccc1)c1ccccc1.[Cl-] (stereo not shown) ?
**A:** 0.925

----------
test conditions: both, human, plasma, oral, 60 mg
measured property: concentration at 8 hr (ng/mL)
Return type: number; implicit unit ng/mL.

**Q:** Which concentration at 8 hr value is on record for O=C(OC1CC2CCC(C1)[N+]21CCCC1)C(O)(c1ccccc1)c1ccccc1.[Cl-] (stereo not shown) ?
**A:** 1.12

----------
protocol description: clinical
test conditions: both, human, plasma, oral
measured property: concentration at 15 hr
Record the result as a number with its unit.

**Q:** Which concentration at 15 hr value is on record for CN(C)C(=N)N=C(N)N [Metformin, N,N-dimethylimidodicarbonimidic diamide] ?
**A:** 83 ng/mL

----------
protocol description: clinical
test conditions: both, human, plasma, oral
measured property: concentration at 11 hr
Record the result as a number with its unit.

**Q:** Which concentration at 11 hr value is on record for CN(C)C(=N)N=C(N)N [Metformin, N,N-dimethylimidodicarbonimidic diamide] ?
**A:** 155 ng/mL

----------
protocol description: Trospium in cerebrospinal fluid: permeation across the blood-brain barrier (Example 1)
Type: in vivo, human
test conditions: both sexes, human, cerebrospinal fluid; 5 hr post dose, Day 10; 60 mg Trospium daily for 10 days
measured property: concentration at 5 h

**Q:** Which concentration at 5 h value is on record for O=C(OC1CC2CCC(C1)[N+]21CCCC1)C(O)(c1ccccc1)c1ccccc1.[Cl-] (stereo not shown) ?
**A:** < 0.04 ng/mL

----------
test conditions: both, human, plasma, oral, 60 mg, Trospium Tmax, column headed Glucophage ® Dosage Regime, N = 44; 60 mg Trospium daily for 10 days alone, steady state
measured property: Tmax

**Q:** Which Tmax value is on record for O=C(OC1CC2CCC(C1)[N+]21CCCC1)C(O)(c1ccccc1)c1ccccc1.[Cl-] (stereo not shown) ?
**A:** ~4.42 h

----------
test conditions: both, human, plasma, oral, Trospium Tmax, Glucophage/Sanctura XR regime (co-administered with 500 mg Metformin twice daily), steady state, N = 43
measured property: Tmax

**Q:** Which Tmax value is on record for O=C(OC1CC2CCC(C1)[N+]21CCCC1)C(O)(c1ccccc1)c1ccccc1.[Cl-] (stereo not shown) ?
**A:** ~4 h

----------
test conditions: both, human, plasma, oral, 60 mg
measured property: AUC(0-t)
Record the result as a number with its unit.

**Q:** Which AUC(0-t) value is on record for O=C(OC1CC2CCC(C1)[N+]21CCCC1)C(O)(c1ccccc1)c1ccccc1.[Cl-] (stereo not shown) [Trospium] ?
**A:** 22.7 ng·h/mL

----------
test conditions: both, human, plasma, oral, 60 mg
measured property: concentration at 5 hr (ng/mL)
Return type: number; implicit unit ng/mL.

**Q:** Which concentration at 5 hr value is on record for O=C(OC1CC2CCC(C1)[N+]21CCCC1)C(O)(c1ccccc1)c1ccccc1.[Cl-] (stereo not shown) ?
**A:** 1.53
